So I've got a bunch of compounds here, and I need their TGI values.
- Tested on: T-47D breast
- assay: NCI tumour cell line growth inhibition, 48 h

Assay T-47D breast, sample CS(=O)(=O)c1ccc(Oc2cc(F)cc(C#N)c2)c2c1[C@H](O)[C@H](F)[C@@H]2F , TGI read: > 100 µM

Lab entry: T-47D breast assay, compound CCOC(=O)/C(C#N)=C/c1ccc2c(-c3c(OCC)ccc4cc(/C=C(\C#N)C(=O)OCC)ccc34)c(OCC)ccc2c1 , TGI = > 100 µM

Entry CSC(SC)=C1CC(=O)Nc2ccccc2C1=O : TGI on T-47D breast = 56.5 µM

# TGI measured on T-47D breast for item OCCN(CCO)N=Nc1ccc(-c2nc3ccccc3[nH]2)cc1 = 53.1 µM

I looked up CN(N=O)C(=O)Nc1c[nH]c(=O)[nH]c1=O and its TGI for T-47D breast was > 100 µM
